Assay: Pharmacokinetic study in rats after intraperitoneal injection (UHPLC-MS/MS)
Assay type: in vivo, Sprague Dawley rats
Details: Sprague Dawley, rat, plasma, ip, single intraperitoneal injection 0.36 mg/kg, male, mean ± SD
Metric: half-life (min)
One number for each entry, in min.

Look up half-life: COc1ccc(Oc2ccc(C(F)(F)F)cc2NC(=O)CC(CC(=O)O)c2ccccc2)cc1 (stereo not shown) [84-B10] 27

---

Assay: Pharmacokinetic study in rats after intraperitoneal injection (UHPLC-MS/MS)
Assay type: in vivo, Sprague Dawley rats
Conditions: both sexes, Sprague Dawley, rat, plasma, ip, single intraperitoneal injection 0.36 mg/kg, total (male and female), mean ± SD, read-out: Cmax
Experimental: The validated UPLC-MS/MS method was successfully applied to the pharmacokinetic study and tissue distribution in rats after an intraperitoneal injection of 84-B10 (0.36 mg/kg). […] After an intraperitoneal administration, 84-B10 could be detected in different tissues, indicating a wide distribution (Figure 4). […] 84-B10 was determined and quantified by ExionLC system coupled with SCIEX 4500 triple quadrupole mass spectrometers (SCIEX, Framingham, MA, USA). […]
Metric: Cmax (ng/mL)
Answers are plain numbers, in ng/mL.

Look up Cmax: COc1ccc(Oc2ccc(C(F)(F)F)cc2NC(=O)CC(CC(=O)O)c2ccccc2)cc1 (stereo not shown) 257
